Sourced from paper PMC5540273

# System: CSF1R;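 note: KINOMEscan kinase panel screen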
# MEASUREMENT SETUP: concentration: 1 μM, replicates: in singlicate; n = 1
ASSAY READOUT: %Inh (%)
Note: unit % is implicit; provide only the numeric part.

Worked cases, %Inh given:
- CCn1cnc2c(N)ncnc21 [GW345098]: 0
- CC(=O)Nc1ccc(COc2ccc(Nc3ccnc4cc(-c5ccccn5)ccc34)cc2)cc1.Cl [GW440148]: 99.3
- Cc1ccc(NC(=O)c2ccnc(N3CCN(C)CC3)c2)cc1-c1ccc(C(=O)NCC2CC2)cc1 [GW775604]: 22
- c1ccc(-c2cc(-c3c[nH]nc3-c3ccccn3)ccn2)cc1 [GW576604]: 0
- CCc1nc(-c2cccc(C)c2)c(-c2ccnc(NCc3ccccc3)c2)s1: 6
- Cl.Nc1ncnc2occ(-c3ccc(NC(=O)Nc4cc(C(F)(F)F)ccc4F)cc3)c12 [SB-707548]: 99.9
- Cc1cccc(Cn2ccn3c(=O)cc(N4CCOCC4)nc23)c1 [GSK2297542]: 11
- Cc1nnc(-c2ccc(C)c(-c3ccc(C(=O)Nc4ccc(NS(C)(=O)=O)cc4)cc3)c2)o1 [GW702865]: 1

// returns reported %Inh for input COc1ccc(Nc2nccc(N3CCC(NC(=O)Nc4cccc(C(C)=O)c4)C3)n2)cc1 (centres unmarked) [GSK1379731]
0

// returns reported %Inh for input COc1cc2c(cc1OCCN1CCN(C)CC1)ncc1c3ccc(C#N)cc3[nH]c21
49

// returns reported %Inh for input COc1ccc(COc2cc(-n3cnc4ccccc43)sc2C(N)=O)cc1 [GSK1024304]
4

// returns reported %Inh for input Cc1nnc(-c2ccc3ncc(-c4ccc(S(C)=O)cc4)n3c2)o1 (centres unmarked)
17

// returns reported %Inh for input NS(=O)(=O)c1cccc(-c2ccc3ncc(N4CCOCC4)nc3c2)c1 [GSK1535721]
0
